All values here come from ChEMBL document CHEMBL5370686.

System: Plasmodium falciparum
procedure.details: Antimalarial activity against Plasmodium falciparum 3D7 by SYBR green 1 assay
Assay type: functional, organism-based
Field: class. Source value: FIC50. Ranges: bucket 1 (below 20 nM), bucket 2 (20 nM to below 30 nM), bucket 3 (30 nM or more)

{"item.smiles": "C[C@H]1C[C@@H](N2C(=N)N[C@](C)(c3cccc(-c4cncc(Cl)c4)c3Cl)CC2=O)CCO1", "group.label": "bucket 1"}
{"item.smiles": "C[C@H]1C[C@@H](N2C(=N)N[C@](C)(c3cccc(-c4ccc(OC(F)(F)F)nc4)c3Cl)CC2=O)CCS1(=O)=O", "group.label": "bucket 2"}
{"item.smiles": "C[C@H]1C[C@@H](N2C(=N)N[C@](C)(c3cccc(-c4ccc(OC(F)F)nc4)c3Cl)CC2=O)CCS1(=O)=O", "group.label": "bucket 2"}
{"item.smiles": "C[C@H]1C[C@@H](N2C(=N)N[C@](C)(c3cccc(-c4ccc(OC(F)(F)F)cc4Cl)c3Cl)CC2=O)CCO1", "group.label": "bucket 1"}
{"item.smiles": "C[C@H]1C[C@@H](N2C(=N)N[C@](C)(c3cccc(NC(=O)c4cccc(C#N)c4)c3Cl)CC2=O)CCO1", "group.label": "bucket 1"}
{"item.smiles": "C[C@H]1C[C@@H](N2C(=N)N[C@](C)(c3cccc(-c4ccc(Cl)cc4Cl)c3Cl)CC2=O)CCO1", "group.label": "bucket 1"}
{"item.smiles": "C[C@@]1(c2cccc(-c3cccc(Cl)c3)c2Cl)CC(=O)N([C@H]2CCOC[C@@H]2O)C(=N)N1", "group.label": "bucket 3"}
{"item.smiles": "C[C@H]1C[C@@H](N2C(=N)N[C@](C)(c3cccc(-c4ccc5ncn(CC(F)(F)F)c5c4)c3Cl)CC2=O)CCO1", "group.label": "bucket 1"}
{"item.smiles": "C[C@H]1C[C@@H](N2C(=N)N[C@](C)(c3cccc(-c4ccc(F)cc4F)c3Cl)CC2=O)CCS1(=O)=O", "group.label": "bucket 1"}
{"item.smiles": "C[C@@]1(c2cccc(-c3ccc(F)cc3F)c2Cl)CC(=O)N([C@H]2CCC(F)(F)[C@@H](O)C2)C(=N)N1", "group.label": "bucket 3"}
{"item.smiles": "C[C@H]1C[C@@H](N2C(=N)N[C@](C)(c3cccc(-c4ccccc4Cl)c3Cl)CC2=O)CCO1", "group.label": "bucket 2"}
{"item.smiles": "C[C@H]1C[C@@H](N2C(=N)N[C@](C)(c3cccc(-c4ccc(F)cc4F)c3Cl)CC2=O)CCO1", "group.label": "bucket 2"}
{"item.smiles": "C[C@H]1C[C@@H](N2C(=N)N[C@](C)(c3cccc(-c4ccc(F)cc4F)c3Cl)CC2=O)CCN1C", "group.label": "bucket 3"}
{"item.smiles": "CN(C)[C@H]1C[C@@H](N2C(=N)N[C@](C)(c3cccc(-c4ccc(F)cc4F)c3Cl)CC2=O)C1", "group.label": "bucket 3"}
